assay: chemical genetic growth profiling, strain panel (AID 1159580);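 further: tested at 20 µM; growth read once vehicle control cultures reached saturation at 30 °C; 1 = growth at the plate median or of vehicle wells; lower values mean less growth of the strain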; conditions: S. cerevisiae deletion strains, growth OD, locus YIL147C, strain SLN1, active compounds read low
The campaign covered roughly 5,500 compounds. About 2,000 (36%) were called active. Roughly 18% stayed inconclusive and do not appear here. This is one part of the list.
MEASUREMENT_KIND: normalized growth
Keep the answer to the number alone.

Please give the measured normalized growth for this compound: COc1ccc2nc3ccccc3c(N)c2c1
0.63

Give the measured normalized growth of Brc1ccc2[nH]c3c(c2c1)CCC3 .
0.947

Would you kindly share the measured normalized growth for S=C(NNC(=S)NC1CC2C=CC1C2)Nc1ccc(Br)c(Cl)c1 (stereo not given) ?
0.983

What value of measured normalized growth is listed for Cc1csc(NC(=O)Nc2ccc(C(F)(F)F)cc2)c1 ?
0.978

If you can, please state the reported normalized growth value of Clc1ccc2c(c1)c1ccccc1n2CN1CCOCC1 .
0.944

* * *

experiment: chemical genetic growth profiling, strain panel (AID 1159580);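 further: tested at 20 µM; growth read once vehicle control cultures reached saturation at 30 °C; 1 = growth at the plate median or of vehicle wells; lower values mean less growth of the strain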; details: S. cerevisiae deletion strains, growth OD, locus YKL193C, strain SDS22, active compounds read low
About 2,000 (36%) of roughly 5,500 compounds were called active. Inconclusive results (about 18%) are left out. The list shows a part of the results.
MEASUREMENT_KIND: normalized growth
Answer with the value's number alone.

Name the reported normalized growth value associated with the molecule O=C(NCCNc1ncc(C(F)(F)F)cc1Cl)C(F)(F)Sc1ccccc1
0.984

Can you look up the measured normalized growth of OC1CCN(c2cc(C(F)(F)F)nc3cc(Cl)cc(Cl)c23)CC1 for me?
0.969

// query normalized growth value for entry CSc1n[nH]c(-c2cc(C(F)(F)F)cc(C(F)(F)F)c2)n1
0.939

Value lookup for normalized growth; key = Fc1cccc(Cl)c1CSc1n[nH]c(-c2cc(C(F)(F)F)cc(C(F)(F)F)c2)n1
0.975

Using the record for O=C(NCC(c1ccccc1)c1c[nH]c2ccccc12)c1ccc(C(F)(F)F)cc1 (stereo not drawn) , report its normalized growth.
0.994

Fill in: normalized growth of O=C(NCC1COc2ccccc2O1)c1ccc(Cl)cc1 (stereo not drawn) is ___
0.933

Which normalized growth reading was recorded for the molecule COC(=O)c1cnn(-c2c(Cl)cccc2Cl)c1C=C(C#N)C#N ?
0.949

What normalized growth value was documented for this molecule, O=C(N/N=C\c1cc(Br)ccc1O)c1ccccc1Oc1ccccc1 ?
0.972

* * *

experiment: chemical genetic growth profiling, strain panel (AID 1159580);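 further: tested at 20 µM; growth read once vehicle control cultures reached saturation at 30 °C; 1 = growth at the plate median or of vehicle wells; lower values mean less growth of the strain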; settings: S. cerevisiae deletion strains, growth OD, locus YNL071W, strain lat1, active compounds read low
Among all 5,500 compounds or so, about 2,000 (36%) were called active. Inconclusive results (about 18%) are left out. This is one part of the list.
MEASUREMENT_KIND: normalized growth

I am curious: what normalized growth value has been reported for CCC(C)C(=O)O[C@H]1[C@H](O)C2C(CN3CC(C)CCC3[C@@]2(C)O)C2C[C@]34O[C@]5(O)C(OC(=O)C(C)(O)CC)CC[C@@]3(C)C5C(OC(C)=O)[C@@H](OC(C)=O)C4[C@@]21O (some centres undefined) ?
1.03 (inactive)

Fill in: normalized growth of OC(CCN1CCCCC1)(c1ccccc1)C1CCCCC1 (centres undefined) is ___
0.98 (inactive)

// lookup normalized growth for O=C1c2c(O)cccc2Cc2cccc(O)c21
1.02 (inactive)

So what's the measured normalized growth for this one? N#CC(O[C@@H]1O[C@H](CO[C@@H]2O[C@H](CO)[C@@H](O)[C@H](O)[C@H]2O)[C@@H](O)[C@H](O)[C@H]1O)c1ccccc1 (some centres undefined)
0.98 (inactive)

All values here come from PubChem BioAssay AID1159580.
